Assay: Pharmacokinetic analyses in mouse
Type: in vivo
Settings: NMRI, mouse, plasma, iv, 5 mg/kg, NMRI mice, i.v., 5 mg/kg, PK study; read-out: Vss
Description: Compound concentrations in plasma aliquots were measured by quantitative HPLC-MS/MS using an internal standard. Calibration and quality control samples were prepared using blank plasma from untreated animals. Samples were precipitated with acetonitrile and injected into a HPLC system (Agilent 1200). […] Chromatograms were analyzed with Analyst (SCIEX) and pharmacokinetic parameters were calculated by non-compartmental analysis using BI-proprietary software.
Assignment: determine reported Vd for the given compounds.
Give the value, in units of L/kg, as a plain number.

Memo: "Cc1ncsc1-c1ccc([C@H](CCCCCN2CCC(c3ccc4c(c3)n(C3CCCC3)c3nc(=O)c5c(Br)cccc5n43)CC2)NC(=O)[C@@H]2C[C@@H](O)CN2C(=O)[C@@H](NC(=O)C2(F)CC2)C(C)(C)C)cc1" , reported Vd: 0.38

Memo: Cc1ncsc1-c1ccc(C(CCC(C)CCN2CCC(c3ccc4c(c3)n(C3CCCC3)c3nc(=O)c5c(Br)cccc5n43)CC2)NC(=O)C2CC(O)CN2C(=O)C(NC(=O)C2(F)CC2)C(C)(C)C)cc1 (centres unmarked) , reported Vd: 0.47

----------
assay: Pharmacokinetic analyses in mouse; assay type: in vivo; conditions: mouse, plasma, oral, 30 mg/kg, 30 mg/kg p.o.; time 1 h; individual animals; read-out: Concentration
property: concentration at 1 h (µM)
Give the value, in units of µM, as a plain number.

Memo: Cc1ncsc1-c1ccc([C@H](CCCCCN2CCC(c3ccc4c(c3)n(C3CCCC3)c3nc(=O)c5c(Br)cccc5n43)CC2)NC(=O)[C@@H]2C[C@@H](O)CN2C(=O)[C@@H](NC(=O)C2(F)CC2)C(C)(C)C)cc1 [compound 11] , reported concentration at 1 h: 0.337

Memo: Cc1ncsc1-c1ccc(C(CCC(C)CCN2CCC(c3ccc4c(c3)n(C3CCCC3)c3nc(=O)c5c(Br)cccc5n43)CC2)NC(=O)C2CC(O)CN2C(=O)C(NC(=O)C2(F)CC2)C(C)(C)C)cc1 (centres unmarked) [ACBI2] , reported concentration at 1 h: 4.31

----------
test: Plasma protein binding; format: in vitro ADME; conditions: 10% calf
property: PPB fu 10% Calf (%)
Give the value, in units of %, as a plain number.

Memo: "Cc1ncsc1-c1ccc([C@H](CCCCCN2CCC(c3ccc4c(c3)n(C3CCCC3)c3nc(=O)c5c(Br)cccc5n43)CC2)NC(=O)[C@@H]2C[C@@H](O)CN2C(=O)[C@@H](NC(=O)C2(F)CC2)C(C)(C)C)cc1" , reported PPB fu 10% Calf: 0.136

----------
assay: Cell viability assay (CellTiter Glo) in a panel of cell lines; type: cell-based, human; details: human, LU99 cells, LU99; log10 conc -6.50446 mol/l;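 also: percent of DMSO-treated control cells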
property: viability at 0.313 µM (%)
Give the value, in units of %, as a plain number.

Memo: Cc1ncsc1-c1ccc(C(CCC(C)CCN2CCC(c3ccc4c(c3)n(C3CCCC3)c3nc(=O)c5c(Br)cccc5n43)CC2)NC(=O)C2CC(O)CN2C(=O)C(NC(=O)C2(F)CC2)C(C)(C)C)cc1 (stereo not shown) , reported viability at 0.313 µM: 30.1

----------
assay: Pharmacokinetic analyses in mouse; type: in vivo; conditions: mouse, plasma, iv, 5 mg/kg, mouse, 5 mg/kg i.v.; read-out: clearance
property: clearance (mL/min/kg)
Give the value, in units of mL/min/kg, as a plain number.

Memo: Cc1ncsc1-c1ccc(C(CCC(C)CCN2CCC(c3ccc4c(c3)n(C3CCCC3)c3nc(=O)c5c(Br)cccc5n43)CC2)NC(=O)C2CC(O)CN2C(=O)C(NC(=O)C2(F)CC2)C(C)(C)C)cc1 (centres unmarked) , reported clearance: 2.1

Memo: "Cc1ncsc1-c1ccc([C@H](CCCCCN2CCC(c3ccc4c(c3)n(C3CCCC3)c3nc(=O)c5c(Br)cccc5n43)CC2)NC(=O)[C@@H]2C[C@@H](O)CN2C(=O)[C@@H](NC(=O)C2(F)CC2)C(C)(C)C)cc1" , reported clearance: 2.2
